Data origin, for the record: patent US20160264649A1

# tested-target: HIV-1 Env of isolate MGRM-F1-017 (subtype F) (HIV-1)
# measurement-protocol: cell-based or functional assay
assay-endpoint: IC50 (neutralization)

{"columns": ["binder", "result"],
 "data": [
  ["PGT-136 (antibody, V domains shown) VH: QLQLQESGPGLVKPSETLSLTCTVSGGSMRGTDWGENDFHYGWIRQSSAKGLEWIGSIHWRGRTTHYKTSFRSRATLSIDTSNNRFSLTFSFVTAADTAVYYCARHKYHDIFRVVPVAGWFDPWGQGLLVTVSS VL: EIVMTQSPPTLSVSPGETATLSCRASQNVKNNLAWYQLKPGQAPRLLIFDASSRAGGIPDRFSGSGYGTDFTLTVNSVQSEDFGDYFCQQYEEWPRTFGQGTKVDIK", "> 50 µg/mL"],
  ["PGT-126 (antibody, V domains shown) VH: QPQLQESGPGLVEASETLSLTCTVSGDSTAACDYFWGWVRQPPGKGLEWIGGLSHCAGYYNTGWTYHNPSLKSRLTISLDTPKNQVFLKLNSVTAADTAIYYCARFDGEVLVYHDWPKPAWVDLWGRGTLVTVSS VL: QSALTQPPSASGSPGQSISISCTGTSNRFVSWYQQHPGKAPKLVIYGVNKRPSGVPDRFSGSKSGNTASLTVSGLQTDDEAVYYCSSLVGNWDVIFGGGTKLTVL", "> 50 µg/mL"],
  ["PGT-130 (antibody, V domains shown) VH: QVQLQESGPGLVKPAETLSLTCSVSGESINTGHYYWGWVRQVPGKGLEWIGHIHYTTAVLHNPSLKSRLTIKIYTLRNQITLRLSNVTAADTAVYHCVRSGGDILYYYEWQKPHWFSPWGPGIHVTVSS VL: QSALTQPPSASGSLGQSVTISCNGTSSDIGGWNFVSWYQQFPGRAPRLIIFEVNKRPSGVPGRFSGSKSGNSASLTVSGLQSDDEGQYFCSSLFGRWDVVFGGGTKLTVL", "> 50 µg/mL"]
]}
